# Measurement description: High-throughput drug toxicity screening in the BPDCN cell line Cal-1 (AID 1224825);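 also: cells exposed to compounds for 48 h; 100% = DMSO and 0% = bortezomib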
# Condition set: Cal-1 BPDCN cell viability, qHTS; at 45.8 µM (top of the series) unless noted
Observable: viability (% of control)

For orientation, consider the following solved cases.
INSERT INTO assay_data (compound, observable, measurement) VALUES
  ('CCN1CCC(n2cc(CNc3cc(Cl)c4ncc(C#N)c(Nc5ccc(F)c(Cl)c5)c4c3)nn2)CC1', 'viability (% of control)', '36.8%'),
  ('COC(=O)[C@H](c1ccccc1Cl)N1CCc2sccc2C1', 'viability (% of control)', '91.3%'),
  ('CC1=C[C@@H]2[C@@H]([C@@H](O)C[C@@]3(C)[C@H]2C[C@@H](C)[C@]3(O)C(=O)CO)[C@@]2(C)Cc3cnn(-c4ccccc4)c3C=C12', 'viability (% of control)', '32.5%'),
  ('CN(C)N=Nc1nc[nH]c1C(N)=O', 'viability (% of control)', '121%'),
  ('O=C(O)c1nc(=O)[nH]c(=O)[nH]1', 'viability (% of control)', '99.2% [at 23.2 µM]'),
  ('COc1nc(C)cnc1NS(=O)(=O)c1cccnc1-c1ccc(-c2nnco2)cc1', 'viability (% of control)', '142%'),
  ('CC(C)CNc1ccnc(NCc2csc(-c3ccccc3)n2)n1', 'viability (% of control)', '5.31%'),
  ('OC[C@H]1O[C@@H](Oc2ccc(O)cc2)[C@H](O)[C@@H](O)[C@H]1O', 'viability (% of control)', '83.5%');

Identify the reported viability (% of control) for the following entry. `CNC(=O)[C@H](Cc1ccccc1)NC(=O)[C@H](CC(C)C)[C@H](CSc1cccs1)C(=O)NO`
56.4%

Respond only with viability (% of control) recorded for CN1c2ccccc2C(=O)N2CCc3c([nH]c4ccccc34)C21 (stereo not given)
97%

Origin of measurements: PubChem BioAssay (NCATS)
